Here's what we have: Kd numbers for CHI3L1 (hCHI3L1-His) (Homo sapiens).
Numbers only, in µM.

molecule | testedOn | reportedProperty | endpointUnit | endpointValue
Cc1c(NC(=O)Cn2cnc3sccc3c2=O)cnn1C1CCCC1 [1-7] | CHI3L1 (hCHI3L1-His) (Homo sapiens) | Kd | µM | 7.4

Let us move to another entry and its Kd.
Entry CC1Cc2ccccc2CN1C(=O)NCc1cc(=O)n2ccccc2n1 (centres unmarked) [1-4] : reported Kd = ?
10.4

Sourced from paper doi:10.1101/2025.08.24.671973v1
